Taken from ChEMBL document CHEMBL1132417.

log10 of IC50 for assorted molecules
species: Bos taurus; experiment: Inhibition of [Fe(2+)]/ascorbate-induced oxidation of bovine heart membranes(antioxidant BHMLO); type: functional
assay.metric: log10 of IC50 (log10 of the value in µM)

> print(dat)
                                   molecule   assay.metric  recorded.number
1  COc1ccc2cc(CC(=O)OCCC3(C)CCc4c(C)c(O)c(C)c(C)c4O3)ccc2c1 (centres undefined)  log10 of IC50             0.65
2  COc1ccc2cc(C(C)C(=O)NCC3(C)CCc4c(C)c(OC(C)=O)c(C)c(C)c4O3)ccc2c1 (centres undefined)  log10 of IC50             0.20
3  COc1ccc2cc(C(C)C(=O)NCC3(C)CCc4c(C)c(O)c(C)c(C)c4O3)ccc2c1 (centres undefined)  log10 of IC50             0.60
4  COc1ccc2cc(C(C)C(=O)OCC3(C)Cc4c(C)c(O)c(C)c(C)c4O3)ccc2c1 (centres undefined)  log10 of IC50             0.68
5  COc1ccc2cc(C(C)C(=O)OCCC3(C)CCc4c(C)c(OC(C)=O)c(C)c(C)c4O3)ccc2c1 (centres undefined)  log10 of IC50             0.65
6  Cc1c(C)c2c(c(C)c1O)CCC(C)(CCO)O2 (centres undefined)  log10 of IC50             0.58
7  COc1ccc2cc([C@H](C)COC(=O)CC3(C)CCc4c(C)c(O)c(C)c(C)c4O3)ccc2c1 (some centres undefined)  log10 of IC50             0.64
8  COc1ccc2cc(C(C)C(=O)NCCC3(C)CCc4c(C)c(O)c(C)c(C)c4O3)ccc2c1 (centres undefined)  log10 of IC50             0.67
9  Cc1c(C)c2c(c(C)c1O)CCC(C)(C(=O)O)O2 (centres undefined)  log10 of IC50             1.41

###

species on record: Bos taurus; test: Inhibition of [Fe(2+)]/ascorbate-induced oxidation of bovine heart membranes(antioxidant BHMLO); assay type: functional
IC50 for assorted compounds
assay.metric: IC50

> print(dat)
                                   compound    result
1  COc1ccc2cc([C@H](C)C(=O)OCC[C@]3(C)CCc4c(C)c(O)c(C)c(C)c4O3)ccc2c1    9.6 µM
2  COc1ccc2cc([C@H](C)C(=O)OCCC3(C)Cc4c(C)c(O)c(C)c(C)c4O3)ccc2c1 (stereo in doubt; 2b)    5.2 µM
3  COc1ccc2cc([C@H](C)C(=O)OCCC3(C)Cc4c(C)c(O)c(C)c(C)c4O3)ccc2c1 (stereo in doubt; 2a)   4.87 µM
4  COc1ccc2cc(C(C)C(=O)OCCC3(C)CCc4c(C)c(OC)c(C)c(C)c4O3)ccc2c1 (stereo not drawn)  14000 µM
5  COc1ccc2cc([C@@H](C)C(=O)NCC3(C)CCc4c(C)c(O)c(C)c(C)c4O3)ccc2c1 (stereo partly drawn)    4.8 µM
6  COc1ccc2cc(C(C)C(=O)OCC[C@@]3(C)CCc4c(C)c(O)c(C)c(C)c4O3)ccc2c1 (single isomer, unassigned)   11.6 µM
7  COc1ccc2cc(C(C)C(=O)OCC3(C)CCc4c(C)c(O)c(C)c(C)c4O3)ccc2c1 (stereo not drawn)   4.36 µM
8  COc1ccc2cc([C@H](C)C(=O)OCC3(C)COc4c(C)c(C)c(O)c(C)c43)ccc2c1 (stereo partly drawn)    5.2 µM
